FYI, the data here is from paper PMC10380841.

# Tested on: Daphnia magna Straus
# EXPERIMENTAL_DETAILS: Daphnia magna toxicity assay
# Format: in vivo
# ASSAY_CONDITIONS: 48 h
REPORTED_ENDPOINT: toxicity on Daphnia magna

> print(dat)
                                   molecule             result
1  CCC(C(=O)O)n1nc(-c2ccccc2)ccc1=O (stereo not drawn)  moderate toxicity
2    CCc1cc(C(=O)OC)c2ccc(-c3ccc(F)cc3)nn12  moderate toxicity
3  CCOC(=O)c1cc(CC)n2nc(-c3ccc(Cl)cc3)ccc12  moderate toxicity
4  CCC(C(=O)O)n1nc(-c2ccc(Cl)cc2)ccc1=O (stereo not drawn)        no toxicity
5  CCC(C(=O)O)n1nc(-c2ccc(F)cc2)ccc1=O (stereo not drawn)        no toxicity
6   CCOC(=O)c1cc(CC)n2nc(-c3ccc(F)cc3)ccc12  moderate toxicity
